Cited source for all entries: patent US20220125959A1

# System: PIP tumor and PC3 tumor
# Method Summary: Biodistribution of 125I labeled compounds 17, 18, 26 and 27 in tumor bearing nude mice
# Format: in vivo
# Condition Context: 4 h, organ with content
Quantity Name: Biodistribution: Bladder* (% ID/g)

A: O=C(O)CC[C@H](NC(=O)N[C@@H](CCCCNC(=O)[C@H](Cc1ccccc1)NC(=O)[C@H](CCC(=O)O)NC(=O)c1ccc([125I])cc1)C(=O)O)C(=O)O [[^125I]17]
B: O=C(O)CC[C@H](NC(=O)N[C@@H](CCCCNC(=O)[C@H](Cc1ccccc1)NC(=O)COc1ccc(C[C@H](NC(=O)[C@H](CCC(=O)O)NC(=O)c2ccc([125I])cc2)C(=O)O)cc1)C(=O)O)C(=O)O [[^125I]26]
C: O=C(O)CC[C@H](NC(=O)N[C@@H](CCCCNC(=O)[C@H](Cc1ccccc1)NC(=O)COc1ccc(C[C@H](NC(=O)[C@H](CCC(=O)O)NC(=O)[C@H](CCC(=O)O)NC(=O)c2ccc([125I])cc2)C(=O)O)cc1)C(=O)O)C(=O)O [[^125I]27]
D: O=C(O)CC[C@H](NC(=O)N[C@@H](CCCCNC(=O)[C@H](Cc1ccccc1)NC(=O)[C@H](CCC(=O)O)NC(=O)[C@H](CCC(=O)O)NC(=O)c1ccc([125I])cc1)C(=O)O)C(=O)O [[^125I]18]
Please list these compounds in decreasing order of Biodistribution: Bladder*. Answer format: the labels, in the requested order.
D, A, C, B

====

# System: PIP tumor and PC3 tumor
# Method Summary: Biodistribution of 125I labeled compounds 17, 18, 26 and 27 in tumor bearing nude mice
# Format: in vivo
# Condition Context: 1 h
Quantity Name: Biodistribution: Liver (% ID/g)

API: value(readout= Biodistribution: Liver, system= PIP tumor and PC3 tumor, query= O=C(O)CC[C@H](NC(=O)N[C@@H](CCCCNC(=O)[C@H](Cc1ccccc1)NC(=O)[C@H](CCC(=O)O)NC(=O)[C@H](CCC(=O)O)NC(=O)c1ccc([125I])cc1)C(=O)O)C(=O)O [[^125I]18] )
3.57

I: O=C(O)CC[C@H](NC(=O)N[C@@H](CCCCNC(=O)[C@H](Cc1ccccc1)NC(=O)[C@H](CCC(=O)O)NC(=O)c1ccc([125I])cc1)C(=O)O)C(=O)O [[^125I]17]
II: O=C(O)CC[C@H](NC(=O)N[C@@H](CCCCNC(=O)[C@H](Cc1ccccc1)NC(=O)COc1ccc(C[C@H](NC(=O)[C@H](CCC(=O)O)NC(=O)c2ccc([125I])cc2)C(=O)O)cc1)C(=O)O)C(=O)O [[^125I]26]
III: O=C(O)CC[C@H](NC(=O)N[C@@H](CCCCNC(=O)[C@H](Cc1ccccc1)NC(=O)COc1ccc(C[C@H](NC(=O)[C@H](CCC(=O)O)NC(=O)[C@H](CCC(=O)O)NC(=O)c2ccc([125I])cc2)C(=O)O)cc1)C(=O)O)C(=O)O [[^125I]27]
hey, can you rank those compounds up there by Biodistribution: Liver? biggest number first please Answer format: the labels, in the requested order.
II, I, III

====

# System: PIP tumor and PC3 tumor
# Method Summary: Biodistribution of 125I labeled compounds 17, 18, 26 and 27 in tumor bearing nude mice
# Format: in vivo
# Condition Context: 4 h, organ with content
Quantity Name: Biodistribution: Stomach* (% ID/g)

Endpoint output: Biodistribution: Stomach* of O=C(O)CC[C@H](NC(=O)N[C@@H](CCCCNC(=O)[C@H](Cc1ccccc1)NC(=O)[C@H](CCC(=O)O)NC(=O)c1ccc([125I])cc1)C(=O)O)C(=O)O [[^125I]17] . Value?
0.11

Endpoint output: Biodistribution: Stomach* of O=C(O)CC[C@H](NC(=O)N[C@@H](CCCCNC(=O)[C@H](Cc1ccccc1)NC(=O)COc1ccc(C[C@H](NC(=O)[C@H](CCC(=O)O)NC(=O)[C@H](CCC(=O)O)NC(=O)c2ccc([125I])cc2)C(=O)O)cc1)C(=O)O)C(=O)O [[^125I]27] . Value?
0.96

A: O=C(O)CC[C@H](NC(=O)N[C@@H](CCCCNC(=O)[C@H](Cc1ccccc1)NC(=O)[C@H](CCC(=O)O)NC(=O)[C@H](CCC(=O)O)NC(=O)c1ccc([125I])cc1)C(=O)O)C(=O)O [[^125I]18]
B: O=C(O)CC[C@H](NC(=O)N[C@@H](CCCCNC(=O)[C@H](Cc1ccccc1)NC(=O)COc1ccc(C[C@H](NC(=O)[C@H](CCC(=O)O)NC(=O)c2ccc([125I])cc2)C(=O)O)cc1)C(=O)O)C(=O)O [[^125I]26]
Given A and given B , which shows the smaller recorded Biodistribution: Stomach*? Select an item and report its label.
B
(B: 0.49 % ID/g, A: 0.72 % ID/g)
